// reported % binding at 37.0 ng/ml for each item listed
Molecular target: T1, CLL-1 on U937 cells (human, UniProt Q5QGZ9 1-265)
T1 construct: whole, on cells; also called CLEC12A; Clec12A
T1 sequence: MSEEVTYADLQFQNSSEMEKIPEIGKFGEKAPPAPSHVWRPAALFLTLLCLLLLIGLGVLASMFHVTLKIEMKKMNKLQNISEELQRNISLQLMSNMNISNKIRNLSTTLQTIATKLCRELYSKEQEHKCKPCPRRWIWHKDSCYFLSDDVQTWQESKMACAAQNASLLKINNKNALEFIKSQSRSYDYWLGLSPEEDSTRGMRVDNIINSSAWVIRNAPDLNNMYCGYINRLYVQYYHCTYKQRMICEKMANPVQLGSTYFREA
Assay: flow cytometry on U937 cells, VHH in 3-fold dilutions, detected with a-His-PE; percent of cells positive
Method: U937 cell binding by VHH clones was assessed using varying doses to determine EC50s. […]
The answer is to be given in %; state only the numeric part.

VHH clone 2F5 (VHH, Includes myc and His tags) VHH: QVQLQQSGGGLAQTGGSLILSCAASGSIFAINEINLMGWYRQAPGKQRELVAACASDGNTYYADSVKGRFTISRDNAEKTVYLQMNNLKPDDTAVYYCDANSRGNYYSGQGTQVTVSS    83.1
VHH clone 2H3 (VHH, Includes myc and His tags; also called 2H3 VHH-Myc-His; VHH 2H3) VHH: QVQLQESGGGLVQAGGSLRLSCVASGSIRSINVMGWYRQAPGKQRELVAACASDGNTYYADSVKGRFTISRDNAEKTVYLQMNNLKPDDTAVYYCDANSRGNYYSGQGTQVTVSS    89
VHH clone 1H1 (VHH, includes myc and His tags; also called 2F4) VHH: QVQLQESGGGLVQPGGSLRLSCAASGFTFNSYAMTWVRQAPGKGLEWVSDINSGGGSTNYADSVKGRFTISRDNAKNTLYLQMNSLKPEDTAVYYCATELRGSDYYRGPIREYAYWGQGTLVTVSS    0.9

Kindly review the next binder as well.
% binding at 37.0 ng/ml for VHH clone 1G6 (VHH, includes myc and His tags; also called 2G11; 2H2) VHH: QVQLQQSGGGLVQAGGSLRLSCAASGSIFAINEINLMGWYRQAPGKQRELVAACASDGNTYYADSVKGRFTISRDNAEKTVYLQMNNLKPDDTAVYYCDANSRGNYYSGQGTQVTVSS is 83.1
